Measurement notes: yeast display, Sf9 membrane polyspecificity reagent, FACS + sequencing; frameworks hold sequencing errors

>  <Sequence content>
QVQLVESAGGLVQAGGSLRLICAASGSIFDLYAMGWYRQAPGTERELVAASTWSGGSTYYADSVKGRFTISRDNAKNTVYLQMNSLKPEDTAVYYCAAAYVGTQDLVIDYDYWGQGTQVTVSS

>  <polyreactivity (PSR sort gate)>
low polyreactivity

$$$$
>  <Sequence content>
QVQLVESGRGLVQAGGSLRLSCAASGFTQPANGMGWYRQAPGIERELVAAISFIAGSTYYADSVKGRFTISRDNAKNTVYLQMNSLKPEDTAVYYCATLFPPSTIYDYWGQGTQVTVSS

>  <polyreactivity (PSR sort gate)>
low polyreactivity

$$$$
>  <Sequence content>
QVQLVESGGGLVQAGGSLRLSCASSGSTIYPNAMGWYRQAPGKERELVARISRTGGSTYADSVKGRFTISRDNAKNTVYLQMNSLKPEDTAVYYCARSYASFSWLRTKEPYEYWGQGTQVTVSS

>  <polyreactivity (PSR sort gate)>
low polyreactivity

$$$$
>  <Sequence content>
QVQLVESGGGLVQAGGSLRLSCAASGRTYFDYTMGWYRQAPGKERELVAAINRSGVSTYYADSVKGRFTISRDNAKNTVYLQMNSLKPEDTAVYYCNADRGPPKLEYDPVIMDYWGQGTQVTVSS

>  <polyreactivity (PSR sort gate)>
low polyreactivity

$$$$

----------
Measurement notes: yeast display, Sf9 membrane polyspecificity reagent, FACS + sequencing; frameworks hold sequencing errors

>  <Sequence content>
QVQLVESGGGLVQAGGSLRLSCAASGRIFVQNAMGWYRQAPGKERELVAAISASGGRTSYADSVKGRFTISRDNAKNTVYLQMNSLKPEDTAVYYCAALFRVYPLTKKYGYWGQGTQVTVSS

>  <polyreactivity (PSR sort gate)>
high polyreactivity

$$$$
>  <Sequence content>
QVQLVESGGGLVQAGGSLRLSCAASGYTRFYAMGWYRQAPGKERELVAAISSSGGTTYYADSVKGRFTISRDNAKNTVYLQMNSLKPEDTAVYYCAKYVSYSRTLYDYWGQGTQVTVSS

>  <polyreactivity (PSR sort gate)>
high polyreactivity

$$$$

----------
Measurement notes: yeast display, Sf9 membrane polyspecificity reagent, FACS + sequencing; frameworks hold sequencing errors
Measured quantity: polyreactivity (PSR sort gate)

Examples with their reported polyreactivity (PSR sort gate) follow.
>  <Sequence content>
QVQLVESGGGLVQAGGSLRLSCAASGSTFYPYFMGWYRQAPAKEREFVAAISKSGGSTYYADSVKGRFTISRDNAKNTVYLQMNSLKPEDTAVYYCNKKVGSYYRSYYYWGQGTQVTVSS

>  <polyreactivity (PSR sort gate)>
high polyreactivity

$$$$
>  <Sequence content>
QVQLVESGGGLVQAGGSLRLSCAASGFIFYSYAMGWYRQAPGKERELVAAITSSGGNTYYADSVKGRFTISRDNAKNTVYLQMNSLKPEDSAVYYCAASSRFWTFYYGIILYDYWGQGTQVTVSS

>  <polyreactivity (PSR sort gate)>
high polyreactivity

$$$$
>  <Sequence content>
QVQLVESGGGLVQAGGTLRLSCAASGYIFPAYVMGWYRQAPGKERELVAAITSGGGTYYADSVKGRFTISRDNAKYTVYLQMNSLKPEDTAVYYCAARYTQRPRRNYWGQGTQVTVSS

>  <polyreactivity (PSR sort gate)>
high polyreactivity

$$$$
>  <Sequence content>
QVQLVESVGGLVQAGGSLRLSCAASGLILANYAMGWYRQAPGKERELVAAISSSGGSTYYADSVKGRFTISRDNAKNTVYLQMNSLKPEDTAVYYCAKAYRGGSAGKSYYYWGQGTQVTVSS

>  <polyreactivity (PSR sort gate)>
high polyreactivity

$$$$
>  <Sequence content>
QVQLVESGGGLVQAGGRLRLSCAASGSSFLGYVMGWSRQAPGKERELVAAITRSGGRTYYADSVKGRFTISRDNAKNTVYLQMTSLNPEDTAVYYCAALRGPSFHGYGYWGQGSQVTVSS

>  <polyreactivity (PSR sort gate)>
high polyreactivity

$$$$
>  <Sequence content>
QVQRVESGGGLVQAGGRLRLSSSASGSIFPTNTMGLSRQSPGKERELVAAITGSGGSRYYADSVKGRFTISRDNAKNTVYLQMNSLKPEDTAVYYCAARYRVDGVKYGYWGQGTQVTVSS

>  <polyreactivity (PSR sort gate)>
high polyreactivity

$$$$
>  <Sequence content>
QVQLVDSAGGLVQAGGSLSLSCAASGFIFGRYAMGWYRQAPGKERELVAVITWSGGRTYYADSVKGRFTISRDNAKNTVYLQMNSLKPEDTAVYYCAADRYPYHYGYDYWGQGTQVTVSS

>  <polyreactivity (PSR sort gate)>
high polyreactivity

$$$$
>  <Sequence content>
QVQLVESGGGLVQAGGSLRLSCAASGFTFAYYTMGWYRQAPGKERELVATISTSGGSTYYADSVKGRFTISRDNAKNTVYLQMNSLKPEDTAVYYCNRDLGRYYHWYDYWGQGTQVTVSS

>  <polyreactivity (PSR sort gate)>
low polyreactivity

$$$$
>  <Sequence content>
QVQLVESGGGLVQAGGSLRLSCAASGFIFSRNAMGWYRQAPGKERELVAVISTRGGSTYYADSVKGRFTISRDNAKNTVYLQMNSLKPEDTAVYYCAARRTRGYEYWGQGTQVTVSS

>  <polyreactivity (PSR sort gate)>
high polyreactivity

$$$$
>  <Sequence content>
QVQLVESGGGLVQAGGSLRLSCAASGIIFKGYDMGWYRQAPGKERELVAAISSGSTNYADSVKGRFTISRDNAKNTVYLQMNSLKPEDTAVYYCAVRTYRYQSWGNYYLEYDYWGQGTQVTVSS

>  <polyreactivity (PSR sort gate)>
low polyreactivity

$$$$

Next, consider the following sequence.
What value of measured polyreactivity (PSR sort gate) is listed for QVQLVESGGGLVQAGGSLRLSCAASGRTIGPYAMGWYRQAPGKERELVAAISGGGSTNYADSVKGRFTISRDNAKNTVSLQMKSLKPEDTAVYYCNTEYPISGEEEYWGQGTQVTVSS ?
low polyreactivity

----------
Measurement notes: yeast display, Sf9 membrane polyspecificity reagent, FACS + sequencing; frameworks hold sequencing errors
Measured quantity: polyreactivity (PSR sort gate)

Examples with their reported polyreactivity (PSR sort gate) follow.
>  <Sequence content>
QVQLVESGGGLVQAGGSLRLSCAASGNTFLYYSMGWYRQAPGKEMELVASINLSDGSTYYADSVKGRFTISRDNAKNTVYFQMNSLKPEDTAVYYCAAVYGGYTIYDYWGQGTQVTVSS

>  <polyreactivity (PSR sort gate)>
low polyreactivity

$$$$
>  <Sequence content>
QVQLVESGGGLVQAGGSLRLSCAASGIIFIYNAMGWYRQAPGKERELVADIRRSGSTSYADSVKGRFTISRDNAKNTVYLQMNSLKPEDTAVYYCAADTSTWFGAYYLRDPYDYWGQGTQVTVSS

>  <polyreactivity (PSR sort gate)>
low polyreactivity

$$$$
>  <Sequence content>
QVQLVESGGGLVQAGGSLRLSCAASGSTFPYYAMGWYRQAPGKEREFVAAISSSGGSTYYADSVKWRFTISRDNAKNTVYLQMNSLKPEDTAVYYCAAQGARRNYYRYGTYTNRRYDYWGQGTQVTVSS

>  <polyreactivity (PSR sort gate)>
high polyreactivity

$$$$
>  <Sequence content>
QVQLVESGGGLVQAGGSLRLSCAASGIIFWRYAMGWYRQAPGKERELDAGITSRGGSTYYADSVKGRFTISRDNAKNTVYLQMNSLKPEDTAVYYCNAPRGSRRSYRRTEYYYWGQGTQVTVSS

>  <polyreactivity (PSR sort gate)>
high polyreactivity

$$$$

Next, consider the following sequence.
What value of measured polyreactivity (PSR sort gate) is listed for QVQLQESVGGLVQADGSLRLSCAASGTIFTQSYMGWYRQAPGKEREFVAGISNGTKTNYGDSVKGRFTISRDNAKNTVYLQMHRLKLEDTAVYYCAVKGFYVDVLAYWGQGTHVTVSS ?
high polyreactivity

----------
Measurement notes: yeast display, Sf9 membrane polyspecificity reagent, FACS + sequencing; frameworks hold sequencing errors
Measured quantity: polyreactivity (PSR sort gate)

>  <Sequence content>
QVQLVESGGGLVQAGGSLRLSCAASGSIFFGNAMGWYRQAPGKERELVAAITRRGGSTYYADSVKGRFTISRDNEKNTVYLQMNSLKPEDTAVYYCKAVSKRYGYGYWGLGTQVTVSS

>  <Measured quantity>
polyreactivity (PSR sort gate)

>  <Result>
high polyreactivity

$$$$
>  <Sequence content>
QVQLVETGGGLVQAGGRLRLSCAASGSTFGSYAMGWYRQAPGKERELVATITESDGTTYYADSVKGSFTISRDNAKNTVYLQMNSLKREDTAVYYCAANYSGDRKRYWPGDTDDYWGQGTQVTVSS

>  <Measured quantity>
polyreactivity (PSR sort gate)

>  <Result>
high polyreactivity

$$$$

----------
Measurement notes: yeast display, Sf9 membrane polyspecificity reagent, FACS + sequencing; frameworks hold sequencing errors
Measured quantity: polyreactivity (PSR sort gate)

>  <Sequence content>
QVQLVESGGGLVQAGGSLRLSCAASGRTFPRNGMGWYRQAPGKERELVAAIRYSGGSTYYADSVKGRFTISRDNAKNTVYLQMNSLKPEDTAVYYWAAGRNRAGGFGSWGQGTQVTVSS

>  <polyreactivity (PSR sort gate)>
high polyreactivity

$$$$
>  <Sequence content>
QVHLVESGGGLVQAGGSLRLSCAASGFIFHYNAMGWYRQAPGKERELVAAITSGDSTDYADSVKGRFTISRDNAKNTVYLQMNSLIPEDTAVYYCAAYHREGRRDDYWGQGTQVTVSS

>  <polyreactivity (PSR sort gate)>
low polyreactivity

$$$$
>  <Sequence content>
QVQLVESGGGLVQAGGSLRLSCAASGRTFYLYTMGWYRQAPGKEREFVAIISRSGASTRYADSVKGRFTISRDNAKNTVYLQMNRLKPEDTAVYYCAAYVGYPYDYWGQGTQVTVSS

>  <polyreactivity (PSR sort gate)>
high polyreactivity

$$$$
>  <Sequence content>
QVQLVESGGGLVQAGGSLRLSCAASGGTFSYYAMGWYRQAPGKERELVASISTDGGSTYYADSVKGRFTISRDNAKNTVYLQMNSLKPEDTAVYYCNARPRGYSDRYGYWGQGTQVTVSS

>  <polyreactivity (PSR sort gate)>
high polyreactivity

$$$$
>  <Sequence content>
QVQLVESGGGLVQAGGSLRLSCAASGSIFVRNVMGLYRQAPGKERELVATIRYRGGSTYYADSVKGRFSISRDNAKNTVYLQMNSLKPEDTAVYYCNARYLWADEYYYWGQGTQVTVSS

>  <polyreactivity (PSR sort gate)>
low polyreactivity

$$$$
>  <Sequence content>
QVQLVESGGGLVQAGGSLRLSCAASGRILIVNTMGWYRQAPGKERELVAAISSGGTTYYADSVKGRFTISRDNAKNTVYLQMNSLKPEDTAVYYCAAKRAGAEYDYWGQGTQVTVSS

>  <polyreactivity (PSR sort gate)>
high polyreactivity

$$$$
>  <Sequence content>
QVQLVESGGGLVQAGGSLRLSCAASGITFALYAMGWYRKAPGKERELVAAISYSGGRTYYADSVKGRFTISRDTAKNTVYLQMNSLKPEDTAVYYCAAGGSGSGPYGYGYWGQGTQVTVSS

>  <polyreactivity (PSR sort gate)>
high polyreactivity

$$$$
>  <Sequence content>
QVQLVESGGGLVQAGGSLRLSCAASGSTFAYYMGWYRQAPGKERELVASISTYYADSVKGRFTISRDNAKNTVYLQMNSLKPEDTAVYSCAKGYPDPQWGGVLAYDYWGQGTQVTVSS

>  <polyreactivity (PSR sort gate)>
low polyreactivity

$$$$
>  <Sequence content>
QVQLVESGGGLVQAGGSLRLSCAASGNTFYGYAMGWYRQAPGKERELVAAIRGSDGITFYADSVKGRFTISRDNAKNTVYLQMNSLKPEDTAVYYCAKDTYRSPRHDYGYWGQGTQVTVSS

>  <polyreactivity (PSR sort gate)>
low polyreactivity

$$$$
>  <Sequence content>
QVQLVESGGGLVQAGGSLRLSCAASGIIFYYYAMGGYRQAPGKEREFVAGIRWSSGSTYYADSVKGRFTISRDNAKNTVYLQMNSLKPEDTAVYYCAADSSGEYPGGYWGQGTQVTVSS

>  <polyreactivity (PSR sort gate)>
low polyreactivity

$$$$

Next, consider the following sequence.
What value of measured polyreactivity (PSR sort gate) is listed for QVQLVESGGGLVQAGGSLRLSCAASGFIFEYNAMGWYRQAPGKERELVAAITSSGGSTYYADSVKGRFTISRDNAKNTVYLQMNSLKPEDTAVYYCARVRRSAYYKDYYYWGQGTQVTVSS ?
high polyreactivity
